In this section we review reported cytotoxicity at 10 µM values for a set of molecules.
- ASSAY_NAME: Toxicity liver stage against HepG2, at 10uM
- Assay type: cell-based
- Set-up: test concentration 10 uM, cell line HepG2-A16-CD81EGFP
- MEASUREMENT_CONDITIONS: human, HepG2-A16-CD81EGFP cells; read-out: INHIBITION
MEASURED_ENDPOINT: cytotoxicity at 10 µM (%)

• O=C(NCC1CC1)C1CCC2(CCN(C(=O)c3cnccn3)CC2)O1 (stereo unspecified) = -9.28
• C=C(C)COc1ccc(C(=O)NCCn2c(C)cc(C)nc2=O)cc1 = -4.83
• CC(C)NC(=O)C1CN(C(=O)Nc2ccccc2)CC12CCOCC2 (stereo unspecified) = 4.58
• O=C(c1cccnc1)N1Cc2ccccc2OCC1Cn1ccnc1 (stereo unspecified) = 1.68
• CN1CCCN(C(=O)c2nc3sccn3c2-c2ncc[nH]2)CC1 = -4.34
• CN1CCN(c2nc(O)cc(Cc3ccccc3F)n2)CC1 = -5.08

----------
- ASSAY_NAME: Toxicity liver stage against HepG2, at 10uM
- Assay type: cell-based
- Parameters: test concentration 10 uM, cell line HepG2-A16-CD81EGFP
- MEASUREMENT_CONDITIONS: human, HepG2-A16-CD81EGFP cells; read-out: INHIBITION
MEASURED_ENDPOINT: cytotoxicity at 10 µM (%)

• CS(=O)(=O)NCCC(=O)N1CCN(S(=O)(=O)c2ccc(Br)cc2)CC1 = -29.6
• O=C(NCCc1ccncc1)C1CCN(Cc2ccco2)CC1 = 26.1
• O=C1CCCN1CC1CN(C(=O)CC2CCCC2)Cc2nccn2C1 (centres undefined) = 1.47
• CCCc1nc(C)cc(N2CCNC(C(=O)NC3CC3)C2)n1 (centres undefined) = -56.5
• Cc1ccc2nc(N3CCN(CC(=O)NC(C)C)CC3)cc(C)c2c1 = -14.7
• COC1COC2(CCN(S(=O)(=O)c3ccc(F)cc3)CC2)C1 (centres undefined) = -95.9
• CCC[C@H]1CN(CCS(C)(=O)=O)C[C@@H]1NC(=O)c1cc[nH]n1 = 2.75
• COC[C@@]12CCC[C@@H]1CN(C(=O)Cc1ccco1)C2 = -102
• CC(C)N1CCC(c2nnc(CN3CCCC3)n2C2CC2)CC1 = -4.57
• Nc1cc(N2CCCC(Cc3ccc(F)cc3F)(C(=O)O)C2)ncn1 (centres undefined) = 10.6
• O=C(NCCOc1ccccc1)c1ccc2c(c1)C(=O)NC2=O = 4.98
• Oc1ccccc1CN1CCCCCC1c1cccs1 (centres undefined) = -3.2
• CN(CC(=O)Nc1cc(CC2CCCCC2)n[nH]1)S(C)(=O)=O = 3.44
• CN(Cc1noc2c1CCCC2)C(=O)C1CCOc2ccccc2C1 (centres undefined) = -7.11
• CN(CC1(CO)CC1)C(=O)C1CCC(=O)N(Cc2ccc(Cl)cc2)C1 (centres undefined) = -5.14
• CC(=O)N(Cc1noc(C)n1)C1CCN(CCOc2ccccc2)C1 (centres undefined) = -2.04
• Cc1cnn(CC2CN(CC(=O)Nc3nncs3)CCO2)c1 (centres undefined) = -10
• CC(c1ccncn1)N(C)Cc1cc(O)c2cc(F)ccc2n1 (centres undefined) = -2
• COCC(C)NCc1nc(-c2ccc(C)cc2)c(-c2ccccn2)[nH]1 (centres undefined) = -3.81
• O=C(CCN1CCSCC1c1ccccc1)N1CCOCC1 (centres undefined) = -12.5
• Cc1cccc(C(C)C)c1NC(=O)NCCN(C(C)C)C(C)C = -8.98
• CN(C)c1cccc(C(=O)N2CCn3c(nnc3-c3ccccc3)C2)c1 = -0.375
• CCCc1c(C(=O)NC2CCCC2)nnn1-c1ccc(OC)cc1 = 5.65
• CN(C)c1ccc(CC2CCN(c3cnccn3)C2)nn1 (centres undefined) = 2.97

----------
- ASSAY_NAME: Toxicity liver stage against HepG2, at 10uM
- Format: cell-based
- Set-up: test concentration 10 uM, cell line HepG2-A16-CD81EGFP
- MEASUREMENT_CONDITIONS: human, HepG2-A16-CD81EGFP cells; read-out: INHIBITION
In this section we review reported cytotoxicity at 10 µM values for a set of compounds.
MEASURED_ENDPOINT: cytotoxicity at 10 µM (%)

* Cc1nc[nH]c1C(=O)N1CCCC2(CN(C)C(=O)O2)C1 (stereo not drawn) | 1.2
* CCC(C(=O)N1CCN(S(=O)(=O)N2CCCC2)CC1)n1cccn1 (stereo not drawn) | -8.56
* FC(F)(F)CN1CCC(CCNc2ncccn2)CC1 | -3.94
* CC(C)OCCN1CCC(N2CCN(C)C2=O)CC1 | -11.4
* Cc1cc(C)n(CC2CN(Cc3cccnc3)CCO2)n1 (stereo not drawn) | -3.08
* COCCN1CCC(NC(=O)NCC2(c3cccc(F)c3)CC2)C1 (stereo not drawn) | 5.59
* O=C1CN(C(=O)CN(CC2CCC2)CC(F)(F)F)CCN1 | 0.821
* CCCc1n[nH]c(C2CN(Cc3nnc(C4CC4)o3)CCO2)n1 (stereo not drawn) | -20.2
* Cc1nnc(CSc2ccc(C(F)(F)F)cn2)o1 | -6.51
* CC(=O)c1cn(CCC(=O)N[C@H](C(=O)O)C(C)C)c2ccccc12 | 8.86
* CCc1ccc(C(=O)NC(C)c2ccc(S(C)(=O)=O)c(F)c2)o1 (stereo not drawn) | 17.2
* CNc1cccc(C2CCCN(Cc3ncc[nH]3)C2)n1 (stereo not drawn) | -18
* CN1C(=O)CC(c2ccccc2)C12CCN(C(=O)c1ccc[nH]1)CC2 (stereo not drawn) | 7.52
* N#CCCN(Cc1ccco1)C(=O)CN1CCCC1c1cccs1 (stereo not drawn) | -2.56
* COc1ccc(C)c2c1N(C(=O)c1ccc3nnc(C)n3c1)CCC2 | 2.84
* O=C(CCc1ccc(Cl)cc1)NC1CCN(c2cccc(F)c2)CC1 | -5.99
* CC(=O)NCCc1ccc(S(=O)(=O)Nc2cc(F)ccc2C)s1 | -13.6
* CC1Cc2ccccc2N1C(=O)Cn1nc(-c2cccs2)cc(N)c1=O (stereo not drawn) | -10.6
* CN(C)S(=O)(=O)N1CCC(Oc2ccc(C#N)cc2)CC1 | 3.96
* O=C(O)CSc1nnc(-c2cn[nH]c2)n1-c1ccccc1Cl | -3.54
* Cc1cscc1C(=O)Nc1cncnc1N(C)C | 0.137
* CC[C@@H](Cn1ncc2ccccc2c1=O)NC(=O)c1ccco1 | 8.44
* CNC(=O)c1ccc(CN(C(=O)c2scnc2C)C2CC2)cc1 | -3.09
* CCN(CC)c1ccc(NC(=O)NC(C)Cn2cccn2)cn1 (stereo not drawn) | 1.35
* CC1(c2ccccc2)CCCN(C(=O)c2ccn3nnnc3c2)C1 (stereo not drawn) | 22.6
* O=C1NC2(CCCN(C(=O)CCn3cncn3)C2)Oc2ccccc21 (stereo not drawn) | 3.08
* CN(Cc1cc[nH]n1)C(=O)C1CC(=O)N(Cc2ccncc2)C1 (stereo not drawn) | 1.59
* NC(=O)C1CCCN1Cc1ccccc1NC(=O)Cc1cccs1 (stereo not drawn) | 7.31
* O=C(CCC1CCN(C2CCSCC2)CC1)NCC1CCCO1 (stereo not drawn) | 8.73
* COCCC(=O)N1CCCC(c2n[nH]cc2C)C1 (stereo not drawn) | -1.75
* Cc1nn(C)c(C)c1CCn1cncc1-c1ccc2c(c1)CC(C)N2C (stereo not drawn) | -0.168
* Cn1ccc2c(-c3cc(N4CCCCC4)ncn3)ccnc21 | -3.46
* Cc1ccc(CN2C[C@H](N3CCOCC3)[C@@H]3OCCC[C@@H]32)o1 | -125
* Cc1ccc(NC(=O)NCC2(O)CCCC2)cc1C | -6.8
* O=C(NCC1COCc2c(-c3ccncc3)nnn2C1)[C@H]1CCCO1 (stereo partly drawn) | 1.9
* CCCc1cc(C(=O)N2CCC3(CCCNC3=O)C2)cs1 (stereo not drawn) | -142
* CCN(CC)c1ncnc2c1CCN(C(=O)Cc1ccccn1)CC2 | 3.13
* COCCN1CCC2(CC1)CC(NC(=O)C1CC1)c1ccccc1O2 (stereo not drawn) | 1.67
* COC(=O)[C@@H]1Cc2ncn(C)c2CN1S(=O)(=O)c1ccc(OC)cc1 | -4.13
* O=C(O)CCc1ccc(S(=O)(=O)Nc2cnn(CC(F)(F)F)c2)cc1 | -7.52
* CC(C)N(C)S(=O)(=O)N1CCCC1CC(=O)c1cccs1 (stereo not drawn) | 5.17
* CCOCCCn1c(NC(=O)c2ccc(C)nc2)nc2ccccc21 | -6.95
* CC(c1ccccc1)N1CCC(NC(=O)CCc2ccsc2)CC1 (stereo not drawn) | 0.91
* Cc1ccc(C(=O)N2CCSCC2)cc1NC(=O)NCCO | -9.64
* CC(C)(C)OC(=O)NCC1CCN(C(=O)c2ccccc2O)CC1 | 8.53
* Cc1cccc(Cn2ccc(NS(C)(=O)=O)n2)c1 | -6.6
* Cc1cnn(C2CCCN(C(=O)c3cccc(Cn4ccnc4)c3)C2)c1 (stereo not drawn) | -1.03
* CN(C)c1ccc(NC(=O)c2ccnn2C)nc1 | 15.1
